Measured EC50 by item
- Target desc: human M4 receptor (Homo sapiens, UniProt P08173)
- Construct: purchased Perkin-Elmer RBHM4M; host or cells: CHO cell membranes
- Sequence (P08173 whole entry): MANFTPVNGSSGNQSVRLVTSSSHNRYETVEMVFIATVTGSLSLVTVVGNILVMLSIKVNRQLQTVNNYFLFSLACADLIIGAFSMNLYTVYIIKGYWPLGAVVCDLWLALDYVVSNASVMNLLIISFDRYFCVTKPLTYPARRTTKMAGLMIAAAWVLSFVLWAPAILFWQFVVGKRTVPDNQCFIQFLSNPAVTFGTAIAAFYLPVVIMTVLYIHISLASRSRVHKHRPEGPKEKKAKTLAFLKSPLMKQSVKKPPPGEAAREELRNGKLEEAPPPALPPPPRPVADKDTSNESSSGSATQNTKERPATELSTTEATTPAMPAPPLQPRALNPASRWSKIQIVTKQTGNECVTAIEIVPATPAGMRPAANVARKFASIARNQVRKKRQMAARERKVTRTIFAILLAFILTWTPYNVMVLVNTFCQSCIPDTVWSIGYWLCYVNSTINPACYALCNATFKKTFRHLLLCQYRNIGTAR
- Procedure summary: hM4 receptor GTPγS binding
- Type: biochemical

| Molecule | EC50 |
| --- | --- |
| CCOC(=O)N1CC[C@H](N2CCC(n3c(=O)[nH]c4ccc(F)cc43)CC2)C1 (single isomer, unassigned) | > 30 µM |
| O=C(C1CCCC1)N1CC[C@H](N2CCC(n3c(=O)[nH]c4ccccc43)CC2)C1 | 0.577 µM |

Moving on to another molecule below.
Recorded result, O=C1CCCN1CCC(=O)N1CC[C@H](N2CCC(N3C(=O)Cc4ccccc43)CC2)C1 , EC50: > 30 µM

Each recorded value in this set is attributed to patent US20100173935A1.
